- Target entity: S. pyogenes SKKanGAS, kanamycin survival, BacTiterGlo, 6 h
- Procedure summary: S. pyogenes SKKanGAS kanamycin growth inhibitors – SKKanGAS strain, luminescence, dose confirmation, streptokinase promoter inhibitor project, dose response (AID 1902);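 note: lower survival reflects blocked streptokinase promoter driving kanamycin resistance gene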
Calls of active or inactive are those of the source.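 Rule for the calls: active = EC50 no more than a set limit of log units above the highest dose; inactive = the rest.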
Parameter: EC50

The examples below pair each entry with its known result.
INSERT INTO assay_data (compound, experimental_value) VALUES
  ('CCCOc1ccc(C(=O)NNC(=S)NC(=O)c2ccccc2)cc1', '217 nM'),
  ('COc1ccc(OC)c(/C=N/n2c(-c3n[nH]c4c3CCC4)n[nH]c2=S)c1', '> 15000 nM (inactive)');

Quick one: give me EC50 for each item below, same order please.
1. Cc1ccc(C)c(-c2nnc(NC(=O)COc3ccccc3)o2)c1
2. O=C(O)c1cccc(N/N=C/C2=C(Cl)c3cc(Cl)ccc3SC2)c1

1: 1700 nM; 2: 1770 nM

Quick one: give me EC50 for each item below, same order please.
1. O=C(/C=C1\NC2(CCCC2)Cc2ccccc21)C(=O)N/N=C/c1ccccc1O
2. CCOC(=O)C1CCN(C2=C(NS(=O)(=O)c3ccc(Cl)cc3)C(=O)c3ccccc3C2=O)CC1

1. 2270 nM
2. 7150 nM
